tested on: MOLT-4; test: NCI tumour cell line growth inhibition, 48 h
Calls of active or inactive are those of the source. No stated cut-off is given here; in the data, active = GI50 up to about 1.1 µM and inactive = higher.
Would you mind telling me the reported GI50 of each entry?

Prompt: Look up GI50 of CCCCCCCSCC(O)COC(c1ccccc1)(c1ccccc1)c1ccccc1 (stereo not given) and report it.
Completion: 28.4 µM (inactive)

Prompt: Look up GI50 of `CC(=O)c1c(O)nnc(-c2ccc(Cl)cc2)c1-c1ccc(Cl)cc1` and report it.
Completion: 48.5 µM (inactive)

Prompt: Look up GI50 of `COc1ccc(C(=O)/C=C2\c3ccccc3C(=O)N2C)cc1` and report it.
Completion: 58.7 µM (inactive)

Prompt: Look up GI50 of `O=C1c2c(Br)sc(Br)c2C(=O)C1(O)O` and report it.
Completion: 33.6 µM (inactive)

Prompt: Look up GI50 of `Cc1ncc([N+](=O)[O-])n1CCNS(=O)(=O)CCCn1ccnc1[N+](=O)[O-]` and report it.
Completion: > 100 µM (inactive)

Prompt: Look up GI50 of COC1C(O)CC(OC2CC(OC3CC(O[C@@H]4C(=O)c5c(cc6cc(OC7CC(OC8CC(O)C(O)C(C)O8)C(O)C(C)O7)c(C)c(O)c6c5O)C[C@H]4[C@H](OC)C(=O)[C@@H](O)[C@@H](C)O)OC(C)C3O)OC(C)C2O)OC1C (stereo not given in full) and report it.
Completion: < 0.0159 µM (active)

Prompt: Look up GI50 of C#CC1(O)CCC2[C@@H]3CCc4cc(Oc5nc(F)nc(-c6c7ccccc7cn6C)n5)ccc4C3CC[C@@]21C (stereo not given in full) and report it.
Completion: 44.9 µM (inactive)

Prompt: Look up GI50 of `Cc1cn2cc(-c3ccncc3)nc2s1` and report it.
Completion: > 100 µM (inactive)

Prompt: Look up GI50 of `O=C(Cn1c(C(=O)/C=C/c2ccc(Cl)cc2)nc2ccccc21)c1ccc(Cl)cc1` and report it.
Completion: 2.26 µM (inactive)

Prompt: Look up GI50 of COC(=O)/C=C/COCC1C2CCC(=O)C21 (stereo not given) and report it.
Completion: > 100 µM (inactive)

Prompt: Look up GI50 of `CCOC(=O)c1csc(NC(=O)CCN2CCCC2)n1` and report it.
Completion: > 100 µM (inactive)

Prompt: Look up GI50 of `CCOC(=O)c1cc(OC(=O)CC)c2c(OC)ccc(OC)c2c1` and report it.
Completion: 43.7 µM (inactive)

Prompt: Look up GI50 of `CCOC(=O)CC(=O)Nc1cccc2sc3ncccc3c(=O)c12` and report it.
Completion: 10 µM (inactive)

Prompt: Look up GI50 of `O=C(CCc1nnc2s/c(=C\c3ccc4c(c3)OCO4)c(=O)n12)Nc1cc(Cl)ccc1Cl` and report it.
Completion: > 100 µM (inactive)

Prompt: Look up GI50 of `CC(=O)N[C@@H](Cc1ccc(O)cn1)C(=O)NCc1ccc2c(c1)OCO2` and report it.
Completion: > 100 µM (inactive)

Prompt: Look up GI50 of `Cc1nc2c(n1CC(C)(C)C)C(=O)c1ccccc1C2=O` and report it.
Completion: 91.2 µM (inactive)

Prompt: Look up GI50 of `Cc1c(/N=N/c2ccc([N+](=O)[O-])cc2)nc2scc(-c3ccccc3)n12` and report it.
Completion: 19.6 µM (inactive)

Prompt: Look up GI50 of `CCOC(=O)C1=c2[nH]c3cccc4cccc(c43)n2C(=O)CC1` and report it.
Completion: > 100 µM (inactive)

Prompt: Look up GI50 of `O=C1NC(Nc2ccccc2)=NC(C(F)(F)F)(C(F)(F)F)N1` and report it.
Completion: 54.5 µM (inactive)

Prompt: Look up GI50 of CC1OC(c2ccccc2)=CC(OCc2ccccc2)[C@H]1OCc1ccccc1 (stereo not given in full) and report it.
Completion: > 10 µM (inactive)

Prompt: Look up GI50 of `N#Cc1[nH]c(=O)n(-c2ccccc2)c1N` and report it.
Completion: > 10 µM (inactive)

Prompt: Look up GI50 of CC(C)N1CCCOC(c2ccc([N+](=O)[O-])cc2)O1 (stereo not given) and report it.
Completion: > 100 µM (inactive)

Prompt: Look up GI50 of O=C1N/C(=N/N=C/C(O)C(O)C(O)C(O)CO)N/C1=C\c1c[nH]c2ccccc12 (stereo not given) and report it.
Completion: 93.8 µM (inactive)

Prompt: Look up GI50 of Cc1cn(CC2=NCC(C)N2)c(=O)[nH]c1=O (stereo not given) and report it.
Completion: > 100 µM (inactive)

Prompt: Look up GI50 of `O=C(N/C(=C\c1cc(Cl)ccc1Cl)c1nc2c(O)nc(S)nc2[nH]1)c1ccccc1` and report it.
Completion: 16.1 µM (inactive)

Prompt: Look up GI50 of `COc1cccc(-c2c(-c3ccccc3)[nH]c(C)c2C(=O)ONC(=O)c2ccccc2)c1` and report it.
Completion: 4.24 µM (inactive)

Prompt: Look up GI50 of `[N-]=[N+]=NC12CC3C4CC5CC3C(C1)C(C5)C4C2` and report it.
Completion: > 100 µM (inactive)

Prompt: Look up GI50 of `O=C(/C=C/c1ccc(O)cc1)c1cc(Cl)ccc1O` and report it.
Completion: 16.6 µM (inactive)

Prompt: Look up GI50 of COc1cc([C@@H]2c3[nH]c4ccccc4c3C(Nc3ccc([N+](=O)[O-])cc3)[C@H]3COC(=O)N23)cc(OC)c1O (stereo not given in full) and report it.
Completion: 0.014 µM (active)

Prompt: Look up GI50 of N#CC1=C(N)Oc2c(ccc3cccnc23)C1c1ccccc1 (stereo not given) and report it.
Completion: 0.667 µM (active)

Prompt: Look up GI50 of O=C1CCC2(c3ccccc3)Nc3ccc(Cl)cc3N12 (stereo not given) and report it.
Completion: > 100 µM (inactive)

Prompt: Look up GI50 of `CN(C)CCSc1nccc(-c2cc3ccccc3s2)n1` and report it.
Completion: 26.2 µM (inactive)

Prompt: Look up GI50 of `Cc1nc(Nc2ccccc2)sc1C(=O)CC(=O)C(=O)NC12CC3CC(CC(C3)C1)C2` and report it.
Completion: > 100 µM (inactive)

Prompt: Look up GI50 of `N=C(NNS(=O)(=O)c1ccccc1)Oc1ccc(Br)cc1Br` and report it.
Completion: > 100 µM (inactive)

Prompt: Look up GI50 of `COc1ccc(OC)c2sc(N3C(=O)/C(=C/c4cccc(Oc5ccccc5)c4)N=C3c3ccccc3)nc12` and report it.
Completion: 31.9 µM (inactive)

Prompt: Look up GI50 of `CC1=CC(=O)[C@@H](O)[C@]2(C)[C@H]3[C@@]4(O)OC[C@]35[C@H]([C@@H](C)[C@H]4O)[C@@H](O)C(=O)O[C@@H]5C[C@@H]12` and report it.
Completion: 1.55 µM (inactive)

Prompt: Look up GI50 of `COc1ccc2c(c1)C(=O)/C(=C/c1ccccc1)C2` and report it.
Completion: 16.3 µM (inactive)

Prompt: Look up GI50 of `O=C(Cc1nc2ccc([N+](=O)[O-])cc2nc1O)C(=O)Nc1ccccc1[N+](=O)[O-]` and report it.
Completion: > 100 µM (inactive)

Prompt: Look up GI50 of `COC(=O)[C@@H]1Cc2ccc(OC)c(c2)OCCC(=O)N1` and report it.
Completion: > 100 µM (inactive)

Prompt: Look up GI50 of O=C1CC2(CCC(O)(c3cccs3)C(C(=O)c3cccs3)C2)C(=O)c2ccccc2N1 (stereo not given) and report it.
Completion: 29 µM (inactive)
